biological target: Heat shock protein HSP 90-alpha (Homo sapiens) (UniProt P07900); experiment: inhibitors of HSP90 chaperone activity – cell lysate, luminescence, confirmation (AID 1846); settings: rabbit reticulocyte lysate, luciferase refolding luminescence, 3 h; at 5.9 µM; active compounds read high
The campaign covered roughly 2,300 compounds. About 1,500 (65%) were called active. The set was probably picked from earlier hits. These entries were drawn from the full list.
Where inhibition equals or exceeds 30%, the correct label is Fulfilled; where it does not, the label is Not fulfilled.

These recorded examples may help you get a feel for the data.
> print(dat)
                                   molecule          label
1             CCCCNC(=O)Nc1c(C)cc(SC#N)cc1C  Not fulfilled
2  COc1ccc(C(=O)Nc2ccccc2C(=O)N/N=C/c2ccc(O)c(OC)c2)cc1      Fulfilled
3          CCCCCc1ccc(-c2ccc(C(=O)O)cc2)nc1      Fulfilled
4  Cc1cccc(C(=O)OC(C)CN2CCN(C)CC2)c1 (centres undefined)  Not fulfilled
5            CCCOc1ccc(C(=O)NCCc2ccccc2)cc1      Fulfilled

Check this molecule for inhibition at or above 30%: CCCS(=O)(=O)N1CCCC(C(=O)NCCN2CCCCC2C)C1 (centres undefined) Not fulfilled

Please do the same for `COc1cc(NS(=O)(=O)c2ccc3ccccc3c2)c2ncccc2c1` as well. Not fulfilled

Please do the same for `Nc1ccc(-c2nnc(-c3ccccc3)o2)cc1` as well. Not fulfilled

Please do the same for `COc1ccc(-c2nc(-c3ccccc3)no2)c(OC)c1` as well. Fulfilled

Please do the same for `Cc1cccc(NC(=O)/C=C/c2ccc3c(c2)OCO3)n1` as well. Fulfilled

Please do the same for `COc1ccc(-n2nnnc2-c2nc3ccccc3s2)cc1` as well. Fulfilled

Please do the same for CSCCC(C(=O)NC1=NCCS1)N1C(=O)c2ccccc2C1=O (centres undefined) as well. Not fulfilled

Please do the same for `CCCCOCCCNC(=O)c1ccccc1OCC` as well. Not fulfilled

Please do the same for COC(=O)C1[C@H]2SC(C)(C)C(C(=O)OC)N2C(=O)N1Cc1nc2ccccc2s1 (some centres undefined) as well. Not fulfilled

Please do the same for `CCOc1ccc(OCc2cccc(C(=O)N(CC)CC)c2)cc1` as well. Fulfilled

Please do the same for `Cc1ccc(C(=O)CSc2ccccc2C(=O)O)cc1` as well. Fulfilled
